experimental.details: Selectivity index, ratio of CC50 for human MRC5 cells assessed as reduction in nuclei count measured after 6 days for Hoechst 33342 staining based microscopic analysis to EC50 Human cytomegalovirus infected in MRC5 cells measured after 6 days by microscopic analysis
Format: toxicity, cell-based
condition.set: time 6 day, read-out: Ratio CC50/EC50
Quick list: selectivity ratio at 144 h per entry.
reported.endpoint: selectivity ratio at 144 h

• O=[N+]([O-])c1cccc(-c2c3nc(c4ccc([nH]4)c(-c4cccc([N+](=O)[O-])c4F)c4ccc([nH]4)c(-c4cccc([N+](=O)[O-])c4F)c4ccc2[nH]4)C=C3)c1F = > 27
• O=[N+]([O-])c1ccc(-c2c3nc(c4ccc([nH]4)c(-c4ccc([N+](=O)[O-])cc4F)c4ccc([nH]4)c(-c4ccc([N+](=O)[O-])cc4F)c4ccc2[nH]4)C=C3)c(F)c1 = 4.5
• O=[N+]([O-])c1ccc(F)cc1-c1c2nc(c3ccc([nH]3)c(-c3cc(F)ccc3[N+](=O)[O-])c3ccc([nH]3)c(-c3cc(F)ccc3[N+](=O)[O-])c3ccc1[nH]3)C=C2 = > 7
• O=[N+]([O-])c1cc(C(F)(F)F)ccc1-c1c2nc(c3ccc([nH]3)c(-c3ccc(C(F)(F)F)cc3[N+](=O)[O-])c3ccc([nH]3)c(-c3ccc(C(F)(F)F)cc3[N+](=O)[O-])c3ccc1[nH]3)C=C2 = > 17
• O=[N+]([O-])c1cc(F)cc(-c2c3ccc([nH]3)c(-c3cc(F)ccc3[N+](=O)[O-])c3nc(c4ccc([nH]4)c(-c4cc(F)ccc4[N+](=O)[O-])c4ccc2[nH]4)C=C3)c1 = > 25

# credit: ChEMBL document CHEMBL4699411
